target: CB1 receptor (Homo sapiens); experiment: CB1 cAMP Antagonist Assay (LANCE Ultra cAMP kit); conditions: Flp-In CHO cells stably expressing the CB1 receptor; forskolin and CP55940 agonist at EC90; cAMP FRET readout
pIC50: −log10 of the molar value.
endpoint: pIC50

molecule="Cn1c(N2CC(c3ccccc3)C(c3ccc(Cl)cc3)=N2)nn(Cc2cccc(C#N)c2)c1=O (stereo not shown) [Compound 170]" testresult="> 7.00"
molecule="Cn1c(N2C[C@H](c3ccccc3)C(c3ccc(Cl)cc3)=N2)nn(Cc2ccc(Cl)cc2)c1=O [Compound 102]" testresult="6.00 to 7.00"
molecule="Cn1nc(N2C[C@]3(CCc4ccccc43)C(c3ccc(Cl)cc3)=N2)n(C)c1=O [Compound 138]" testresult="< 5.30"
molecule="C[C@@H](c1ccc(Cl)cc1)n1nc(N2CC(c3ccccc3)C(c3ccc(Cl)cc3)=N2)n(CC(N)=O)c1=O (stereo in doubt) [Compound 150]" testresult="6.00 to 7.00"
molecule="C[C@@H](c1ccc(Cl)cc1)n1nc(N2C[C@H](c3ccccc3)C(c3ccc(Cl)cc3)=N2)n(CC(N)=O)c1=O [Compound 153]" testresult="> 7.00"

input: Recall the reported pIC50 of C[C@@H](C(N)=O)n1c(N2C[C@H](c3ccccc3)C(c3ccc(Cl)cc3)=N2)nn(Cc2ccc(Cl)cc2)c1=O [Compound 176] when tested on CB1 receptor (Homo sapiens).
output: > 7.00

input: Recall the reported pIC50 of CC(C(N)=O)n1c(N2CC(c3ccccc3)C(c3ccc(Cl)cc3)=N2)nn(CC2CCCCC2)c1=O (stereo not shown) [Compound 158] when tested on CB1 receptor (Homo sapiens).
output: > 7.00

###

target: CB1 receptor (Homo sapiens, UniProt P21554); test: CB1 cAMP Antagonist Assay (LANCE Ultra cAMP kit); assay type: cell-based; details: Flp-In CHO cells stably expressing the CB1 receptor; forskolin and CP55940 agonist at EC90; cAMP FRET readout
Sequence (P21554 whole entry): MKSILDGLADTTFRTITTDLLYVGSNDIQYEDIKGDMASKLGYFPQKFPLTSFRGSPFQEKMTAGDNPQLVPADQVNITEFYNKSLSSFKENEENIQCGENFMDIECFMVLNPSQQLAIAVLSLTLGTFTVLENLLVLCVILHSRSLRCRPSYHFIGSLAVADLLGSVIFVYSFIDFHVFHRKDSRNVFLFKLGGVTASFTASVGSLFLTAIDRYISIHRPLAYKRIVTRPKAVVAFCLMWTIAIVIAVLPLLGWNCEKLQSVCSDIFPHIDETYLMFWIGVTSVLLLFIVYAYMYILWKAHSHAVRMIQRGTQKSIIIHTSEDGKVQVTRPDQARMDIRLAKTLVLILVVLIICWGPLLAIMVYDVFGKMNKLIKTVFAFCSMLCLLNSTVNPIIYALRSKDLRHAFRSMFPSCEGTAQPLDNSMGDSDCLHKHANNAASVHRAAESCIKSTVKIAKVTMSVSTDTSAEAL
Here the recorded IC50 is given for each entry.

# example entries with known answers
molecule="Cn1c(N2C[C@@]3(CCc4ccccc43)C(c3ccc(Cl)cc3)=N2)nn(-c2ccc(Cl)cc2)c1=O [Compound 116]" measuredtarget="CB1 receptor (Homo sapiens, UniProt P21554)" endpoint=IC50 testresult="> 5 µM"
molecule="Cn1c(N2CC(c3ccccc3)C(c3ccc(Cl)cc3)=N2)nn(Cc2ccc(C#N)cc2)c1=O (stereo not shown) [Compound 160]" measuredtarget="CB1 receptor (Homo sapiens, UniProt P21554)" endpoint=IC50 testresult="< 0.1 µM"
molecule="NC(=O)Cn1c(N2C[C@@]3(CCc4ccccc43)C(c3ccc(Cl)cc3)=N2)nn(-c2ccc(Cl)cc2)c1=O [Compound 119]" measuredtarget="CB1 receptor (Homo sapiens, UniProt P21554)" endpoint=IC50 testresult="> 5 µM"

As a next step, examine the molecule that follows.
input: Identify measured IC50 corresponding to Cc1ccc(Cn2nc(N3C[C@H](c4ccccc4)C(c4ccc(Cl)cc4)=N3)n(C)c2=O)cc1 [Compound 163]
output: < 0.1 µM

###

target: CB1 receptor (Homo sapiens); assay: CB1 cAMP Antagonist Assay (LANCE Ultra cAMP kit); details: Flp-In CHO cells stably expressing the CB1 receptor; forskolin and CP55940 agonist at EC90; cAMP FRET readout
endpoint: IC50

# example entries with known answers
compound=O=C(O)CCn1c(N2C[C@@]3(CCc4ccccc43)C(c3ccc(Cl)cc3)=N2)nn(-c2ccc(Cl)cc2)c1=O testresult="> 5000 nM"
compound=C[C@H](C(N)=O)n1c(N2C[C@H](c3ccccc3)C(c3ccc(Cl)cc3)=N2)nn(Cc2ccc(Cl)cc2)c1=O testresult="< 100 nM"

input: Recall the reported IC50 of Cc1ccc(Cn2nc(N3CC(c4ccccc4)C(c4ccc(Cl)cc4)=N3)n(C)c2=O)cn1 (stereo not shown) when tested on CB1 receptor (Homo sapiens).
output: 100 to 1000 nM

input: Recall the reported IC50 of CCOC(=O)Cn1c(N2C[C@H](c3ccccc3)C(c3ccc(Cl)cc3)=N2)nn(-c2ccc(Cl)cc2)c1=O when tested on CB1 receptor (Homo sapiens).
output: < 100 nM

###

Here the recorded pIC50 is given for each entry.
target: CB1 receptor (Homo sapiens, UniProt P21554); experiment: CB1 cAMP Antagonist Assay (LANCE Ultra cAMP kit); details: Flp-In CHO cells stably expressing the CB1 receptor; forskolin and CP55940 agonist at EC90; cAMP FRET readout
pIC50: −log10 of the molar value.

# example entries with known answers
molecule="Cn1c(N2C[C@H](c3ccccc3)C(c3ccc(Cl)cc3)=N2)nn(Cc2ccccc2)c1=O [Compound 169]" measuredtarget="CB1 receptor (Homo sapiens, UniProt P21554)" testresult="> 7.00"
molecule="NC(=O)Cn1c(N2C[C@@H](c3ccccc3)C(c3ccc(Cl)cc3)=N2)nn(-c2ccc(Cl)cc2)c1=O [Compound 108]" measuredtarget="CB1 receptor (Homo sapiens, UniProt P21554)" testresult="> 7.00"
molecule="Cc1ncc(Cn2nc(N3CC(c4ccccc4)C(c4ccc(Cl)cc4)=N3)n(C)c2=O)cn1 (centres unmarked) [Compound 196]" measuredtarget="CB1 receptor (Homo sapiens, UniProt P21554)" testresult="6.00 to 7.00"
molecule="NC(=O)CCn1c(N2CC3(CCc4ccccc43)C(c3ccc(Cl)cc3)=N2)nn(Cc2ccc(Cl)cc2)c1=O (stereo in doubt) [Compound 132]" measuredtarget="CB1 receptor (Homo sapiens, UniProt P21554)" testresult="5.30 to 6.00"

input: Recall the reported pIC50 of Cn1c(N2CC(c3ccccc3)C(c3ccc(Cl)cc3)=N2)nn(Cc2cccc(C(=O)O)c2)c1=O (centres unmarked) [Compound 186] when tested on CB1 receptor (Homo sapiens, UniProt P21554).
output: < 5.30

###

biological target: CB1 receptor (Homo sapiens, UniProt P21554); experiment: CB1 cAMP Antagonist Assay (LANCE Ultra cAMP kit); details: Flp-In CHO cells stably expressing the CB1 receptor; forskolin and CP55940 agonist at EC90; cAMP FRET readout
pIC50: −log10 of the molar value.
endpoint: pIC50

# example entries with known answers
molecule="NC(=O)CCn1c(N2CC3(CCc4ccccc43)C(c3ccc(Cl)cc3)=N2)nn(Cc2ccc(Cl)cc2)c1=O (stereo in doubt) [Compound 133]" measuredtarget="CB1 receptor (Homo sapiens, UniProt P21554)" testresult="5.30 to 6.00"
molecule="Cc1ccc(Cn2nc(N3C[C@@H](c4ccccc4)C(c4ccc(Cl)cc4)=N3)n(C)c2=O)cc1 [Compound 161]" measuredtarget="CB1 receptor (Homo sapiens, UniProt P21554)" testresult="5.30 to 6.00"

As a next step, examine the molecule that follows.
input: Identify measured pIC50 corresponding to C[C@H](c1ccc(Cl)cc1)n1nc(N2C[C@H](c3ccccc3)C(c3ccc(Cl)cc3)=N2)n(CC(N)=O)c1=O [Compound 154]
output: > 7.00

###

Here the recorded IC50 is given for each entry.
biological target: CB1 receptor (Homo sapiens); test: CB1 cAMP Antagonist Assay (LANCE Ultra cAMP kit); conditions: Flp-In CHO cells stably expressing the CB1 receptor; forskolin and CP55940 agonist at EC90; cAMP FRET readout

input: Identify measured IC50 corresponding to Cn1c(N2CC(c3ccccc3)C(c3ccc(Cl)cc3)=N2)nn(Cc2cccc(C(N)=O)c2)c1=O (stereo not shown) [Compound 182]
output: 100 to 1000 nM

input: Identify measured IC50 corresponding to Cn1c(N2C[C@H](c3ccccc3)C(c3ccc(Cl)cc3)=N2)nn(CCc2ccc(C(=O)NCCO)cc2)c1=O [Compound 200]
output: 100 to 1000 nM

input: Identify measured IC50 corresponding to Cn1c(N2C[C@@H](c3ccccc3)C(c3ccc(Cl)cc3)=N2)nn(Cc2ccc(CN3CCOCC3)cc2)c1=O [Compound 134]
output: 1000 to 5000 nM

input: Identify measured IC50 corresponding to Cn1c(N2CC(c3ccccc3)C(c3ccc(Cl)cc3)=N2)nn(Cc2ccc(C(=O)NCCO)cc2)c1=O (stereo not shown) [Compound 173]
output: 1000 to 5000 nM

input: Identify measured IC50 corresponding to O=c1n(Cc2ccc(Cl)cc2)nc(N2CC3(CCc4ccccc43)C(c3ccc(Cl)cc3)=N2)n1CCO (stereo in doubt) [Compound 118]
output: 100 to 1000 nM

input: Identify measured IC50 corresponding to Cn1c(N2C[C@H](c3ccccc3)C(c3ccc(Cl)cc3)=N2)nn(-c2ccc(CN3CCOCC3)cc2)c1=O [Compound 144]
output: 100 to 1000 nM

input: Identify measured IC50 corresponding to Cn1nc(N2CC(c3ccccc3)C(c3ccc(Cl)cc3)=N2)n(Cc2ccccc2)c1=O (stereo not shown) [Compound 193]
output: 100 to 1000 nM

input: Identify measured IC50 corresponding to NC(=O)Cn1c(N2C[C@@H](c3ccccc3)C(c3ccc(Cl)cc3)=N2)nn(Cc2ccc(Cl)cc2)c1=O [Compound 106]
output: 1000 to 5000 nM

input: Identify measured IC50 corresponding to C[C@@H](C(N)=O)n1c(N2C[C@@H](c3ccccc3)C(c3ccc(Cl)cc3)=N2)nn(Cc2ccc(CN3CCOCC3)cc2)c1=O [Compound 159]
output: 1000 to 5000 nM

input: Identify measured IC50 corresponding to O=C(O)CCn1c(N2C[C@]3(CCc4ccccc43)C(c3ccc(Cl)cc3)=N2)nn(-c2ccc(Cl)cc2)c1=O [Compound 129]
output: > 5000 nM

input: Identify measured IC50 corresponding to NC(=O)Cn1c(N2C[C@@]3(CCc4ccccc43)C(c3ccc(Cl)cc3)=N2)nn(Cc2ccc(Cl)cc2)c1=O [Compound 125]
output: 1000 to 5000 nM

input: Identify measured IC50 corresponding to COc1ccc(Cn2nc(N3C[C@H](c4ccccc4)C(c4ccc(Cl)cc4)=N3)n(C)c2=O)cc1 [Compound 143]
output: < 100 nM

input: Identify measured IC50 corresponding to Cn1c(N2C[C@@H](c3ccccc3)C(c3ccc(Cl)cc3)=N2)nn(Cc2ccccc2)c1=O [Compound 166]
output: 100 to 1000 nM
